assay-explanation: Selectivity index, ratio of LD50 for human A549 cells to MIC80 for Cryptococcus neoformans H99
Format: toxicity
condition-description: read-out: Selectivity Index
measured-quantity: selectivity ratio
// return just the number, without any unit appended

// worked examples, selectivity ratio included
chem-smiles	selectivity ratio
Cc1ccc(O)c(/C=N/NC(=O)c2cc(Br)cc(Br)c2O)c1	16
O=C(N/N=C/c1cc(Cl)ccc1O)c1cccc(F)c1F	72
O=C(N/N=C/c1cc(Br)ccc1O)c1cccc(OC(F)F)c1	66.6
O=C(N/N=C/c1cc(Cl)ccc1O)c1cc(Br)ccc1Br	236

// query May I ask what selectivity ratio has been recorded for Cc1ccc(O)c(/C=N/NC(=O)c2ccc(Br)c(Br)c2)c1 ?
// result 133

// query Repeat with O=C(N/N=C/c1cc(Br)cc(Br)c1O)c1ccc(F)cc1
// result 267

// query Repeat with O=C(N/N=C/c1ccc(Br)cc1O)c1cccc(Br)c1
// result 128

// query Repeat with O=C(N/N=C/c1cc(Br)cc(Br)c1O)c1ccc(OC(F)(F)F)cc1F
// result 267

// query Repeat with O=C(N/N=C/c1cc(Cl)cc(Cl)c1O)c1ccc(Br)cc1Br
// result 128

// query Repeat with N#Cc1ccc(C(=O)N/N=C/c2cc(Br)cc(Br)c2O)cc1
// result 1070

// query Repeat with O=C(N/N=C/c1ccc(Br)cc1O)c1cc(Br)cc(Br)c1O
// result 533

====

Tested on: Cryptococcus neoformans
assay-explanation: Antifungal activity against Cryptococcus neoformans H99 assessed as FICI in presence of amphotericin B
Assay type: functional, var grubii H99
Reported fractional inhibitory concentration index (FICI) is given for each of the following molecules.
// return just the number, without any unit appended

// worked examples, fractional inhibitory concentration index (FICI) included
chem-smiles	measured-number
O=C(N/N=C/c1ccc(Br)cc1O)c1ccc(Br)cc1Br	0.086
O=C(N/N=C/c1cc(Br)ccc1O)c1ccc(Br)cc1Br	0.086

// query May I ask what fractional inhibitory concentration index (FICI) has been recorded for O=C(N/N=C/c1ccc(Br)cc1O)c1cc(Br)cc(Br)c1O ?
// result 0.261

// query Repeat with O=C(N/N=C/c1cc(Cl)cc(Cl)c1O)c1ccc(Br)c(Br)c1
// result 0.247

// query Repeat with O=C(N/N=C/c1cc(Br)cc(Br)c1O)c1ccc(Br)c(Br)c1
// result 0.247

====

assay-explanation: Selectivity index, ratio of LD50 for human A549 cells to MIC80 for Cryptococcus neoformans H99
Format: toxicity
condition-description: read-out: Selectivity Index
measured-quantity: selectivity ratio
// return just the number, without any unit appended

// query May I ask what selectivity ratio has been recorded for O=C(N/N=C/c1c(O)ccc2ccccc12)c1ccc(Br)c(Br)c1 ?
// result 33.3

// query Repeat with O=C(N/N=C/c1cc(Cl)ccc1O)c1ccc(Br)c(Br)c1
// result 267

// query Repeat with O=C(N/N=C/c1cc(F)ccc1O)c1ccc(Br)cc1Br
// result 16

// query Repeat with O=C(N/N=C/c1cc(Br)ccc1O)c1cc(Br)cc(Br)c1
// result 267

// query Repeat with O=C(N/N=C/c1cc(Cl)cc(Cl)c1O)c1cccc(Br)c1Br
// result 64

// query Repeat with O=C(N/N=C/c1ccc(Br)cc1O)c1cc(Br)cc(Br)c1
// result 4

// query Repeat with CN(C)c1ccc(C(=O)N/N=C/c2ccc(Br)cc2O)cc1
// result 64

// query Repeat with O=C(N/N=C/c1cc(Br)cc(Br)c1O)c1ccc(CF)cc1
// result 32

// query Repeat with O=C(N/N=C/c1cc(Br)cc(Br)c1O)c1ccc(Br)c(Br)c1
// result 1070

// query Repeat with O=C(N/N=C/c1cc(Br)ccc1O)c1ccc(OC(F)(F)F)cc1F
// result 128

// query Repeat with Cc1ccc(O)c(/C=N/NC(=O)c2cc(Br)ccc2O)c1
// result 64

====

assay-explanation: Selectivity index, ratio of LD50 for human A549 cells to MIC80 for Cryptococcus neoformans H99
Assay type: toxicity
condition-description: read-out: Selectivity Index
Reported selectivity ratio is given for each of the following compounds.
// return just the number, without any unit appended

chem-smiles	selectivity ratio
O=C(N/N=C/c1cc(Br)cc(Br)c1O)c1ccc(C(F)(F)F)cc1F	533

// query May I ask what selectivity ratio has been recorded for O=C(N/N=C/c1ccc(Br)cc1O)c1ccc(Br)cc1Br ?
// result 1070

// query Repeat with O=C(N/N=C/c1cc(Br)cc(Br)c1O)c1cccc(Br)c1Br
// result 64

// query Repeat with O=C(N/N=C/c1cc(Cl)ccc1O)c1cc(Br)cc(Br)c1
// result 133

// query Repeat with CN(C)c1ccc(C(=O)N/N=C/c2c(O)ccc3ccccc23)cc1
// result 64

// query Repeat with O=C(N/N=C/c1cc(Cl)cc(Cl)c1O)c1cc(Br)ccc1Br
// result 64

// query Repeat with CN(C)c1ccc(C(=O)N/N=C/c2cc(Br)cc(Br)c2O)cc1
// result 32

// query Repeat with O=C(N/N=C/c1cc(Br)cc(Br)c1O)c1cccc(OC(F)F)c1
// result 133

// query Repeat with O=C(N/N=C/c1cc(Br)ccc1O)c1cc(Br)ccc1Br
// result 64

// query Repeat with Cc1ccc(O)c(/C=N/NC(=O)c2cc(Br)cc(Br)c2)c1
// result 64

// query Repeat with O=C(N/N=C/c1ccc(Br)cc1O)c1cccc(C(F)(F)F)c1
// result 128

====

System: HepG2
assay-explanation: Cytotoxicity against human HepG2 cells after 24 to 48 hrs by MTT assay
Assay type: functional
condition-description: read-out: LD50 (the source's name)
Reported CC50 is given for each of the following molecules.
Numeric only. Scale: µg/mL

// worked examples, CC50 included
chem-smiles	CC50 [µg/mL]
O=C(N/N=C/c1cc(Br)ccc1O)c1ccc(OC(F)(F)F)cc1	16
O=C(N/N=C/c1cc(Cl)cc(Cl)c1O)c1cc(Br)cc(Br)c1	64
O=C(N/N=C/c1cc(Br)ccc1O)c1ccccc1C(F)(F)F	16
O=C(N/N=C/c1cc(Br)cc(Br)c1O)c1ccc(CF)cc1	16
O=C(N/N=C/c1cc(Br)cc(Br)c1O)c1ccc(C(F)(F)F)cc1F	16
O=C(N/N=C/c1cc(Br)ccc1O)c1cccc(OC(F)F)c1	64

// query May I ask what CC50 has been recorded for O=C(N/N=C/c1ccc(Br)cc1O)c1cc(Br)cc(Br)c1O ?
// result 32

// query Repeat with O=C(N/N=C/c1cc(Cl)cc(Cl)c1O)c1ccc(Br)cc1Br
// result 64

// query Repeat with O=C(N/N=C/c1cc(Cl)ccc1O)c1ccc(Br)c(Br)c1
// result 32

// query Repeat with Cc1ccc(O)c(/C=N/NC(=O)c2cc(Br)cc(Br)c2O)c1
// result 8

// query Repeat with O=C(N/N=C/c1cccc(Br)c1O)c1cccc(C(F)(F)F)c1
// result 16

====

Tested on: [Candida] auris
assay-explanation: Antifungal activity against Candida auris assessed as FICI in presence of itraconazole
Format: functional, Candidozyma auris
measured-quantity: fractional inhibitory concentration index (FICI)
// return just the number, without any unit appended

// worked examples, fractional inhibitory concentration index (FICI) included
chem-smiles	measured-number
O=C(N/N=C/c1ccc(Br)cc1O)c1cc(Br)cc(Br)c1O	0.18
O=C(N/N=C/c1cc(Br)ccc1O)c1ccc(Br)cc1Br	1.016
O=C(N/N=C/c1ccc(Br)cc1O)c1ccc(Br)cc1Br	0.508
O=C(N/N=C/c1cc(Br)cc(Br)c1O)c1ccc(Br)c(Br)c1	1.12

Turning now to a further record.
// query May I ask what fractional inhibitory concentration index (FICI) has been recorded for O=C(N/N=C/c1cc(Cl)cc(Cl)c1O)c1ccc(Br)c(Br)c1 ?
// result 1.12

====

Reported fractional inhibitory concentration index (FICI) is given for each of the following molecules.
Tested on: Candida albicans
assay-explanation: Antifungal activity against Candida albicans assessed as FICI in presence of caspofungin
Type: functional
// return just the number, without any unit appended

// query May I ask what fractional inhibitory concentration index (FICI) has been recorded for O=C(N/N=C/c1ccc(Br)cc1O)c1cc(Br)cc(Br)c1O ?
// result 0.508

====

Tested on: Cryptococcus neoformans
assay-explanation: Fungicidal activity against Cryptococcus neoformans H99 measured after 6 hrs by time-kill assay
Assay type: functional, var grubii H99
measured-quantity: MFC100 (µg/mL)
Numeric only. Scale: µg/mL

// worked examples, MFC100 included
chem-smiles	unit-of-measure	MFC100
O=C(N/N=C/c1ccc(Br)cc1O)c1cc(Br)ccc1Br	µg/mL	0.25
O=C(N/N=C/c1cc(Cl)cc(Cl)c1O)c1ccc(Br)cc1Br	µg/mL	0.5
O=C(N/N=C/c1cc(Br)cc(Br)c1O)c1ccc(OC(F)F)cc1	µg/mL	1

Turning now to a further record.
// query May I ask what MFC100 has been recorded for O=C(N/N=C/c1cc(Cl)cc(Cl)c1O)c1ccc(Br)c(Br)c1 ?
// result 1
